Test system: HeLa cells
Test: Compound screen by flow cytometry: HeLa cell count as surrogate readout of cell viability (z-scoreHeLa); also: test concentration or dose not given here
Type: cell-based, human
Settings: PKIS compound screen raw data, HeLa cell count, replicate 1
Hi! Just check whether cell count rep 1 is below 5000. Below gives Satisfied, equal or above gives Not satisfied.

>  <Compound>
Cc1ccnc2ccc(-c3sc(N)nc3-c3ccccn3)nc12 [GW777257X]

>  <Assigned Class>
Satisfied

$$$$
>  <Compound>
c1ccc(Oc2ccc(Nc3ccnc4cc(-c5ccc(CN6CCNCC6)o5)ccc34)cc2)nc1 [GW567142A]

>  <Assigned Class>
Not satisfied

$$$$
>  <Compound>
CC(=O)N1CCN(c2ccc(Nc3nccc(-c4sc(C(C)C)nc4-c4cccc(NS(=O)(=O)c5cccc(Cl)c5)c4)n3)cn2)CC1 [GSK1660437A]

>  <Assigned Class>
Satisfied

$$$$
>  <Compound>
Cc1cc(-c2ccnc(Nc3cccc(C#N)c3)n2)cc(C)c1O [GSK1440913A]

>  <Assigned Class>
Satisfied

$$$$
>  <Compound>
COc1ccc(CNC(=O)NC2CCN(c3ccnc(Nc4ccc(F)cc4)n3)CC2)cc1 [GSK1379788A]

>  <Assigned Class>
Not satisfied

$$$$
>  <Compound>
COC(=O)Nc1nc2ccc(Oc3ccc(NC(=O)Nc4cc(C(F)(F)F)ccc4Cl)cc3)cc2[nH]1 [GW697465A]

>  <Assigned Class>
Satisfied

$$$$
>  <Compound>
Cc1ccc(NC(=O)c2ccc(Cl)cc2)cc1-c1ccc(C(=O)Nc2ccncc2)cc1 [GSK1398467A]

>  <Assigned Class>
Not satisfied

$$$$
>  <Compound>
CCS(=O)(=O)c1ccc(OC)c(Nc2nccc(N(C)c3ccc4c(C)n[nH]c4c3)n2)c1 [GW654652C]

>  <Assigned Class>
Not satisfied

$$$$
>  <Compound>
CC(C(=O)NC1CCN(c2ccnc(Nc3ccc(F)cc3)n2)C1)c1ccc(Cl)cc1 (centres unmarked) [GSK1379713A]

>  <Assigned Class>
Not satisfied

$$$$
>  <Compound>
COc1cc(Nc2ccnc3ccc(C(F)(F)F)cc23)cc(OC)c1OC [GW577382X]

>  <Assigned Class>
Satisfied

$$$$
>  <Compound>
COc1ccc(CNC(=O)NC2CCN(c3ccnc(Nc4cc(OC)c(OC)c(OC)c4)n3)C2)cc1 (centres unmarked) [GSK1379748A]

>  <Assigned Class>
Not satisfied

$$$$
>  <Compound>
CS(=O)(=O)Nc1ccc(-c2cc(-c3ccccc3)cc(C(N)=O)c2N)cc1 [GSK586581A]

>  <Assigned Class>
Not satisfied

$$$$
>  <Compound>
O=C(Nc1n[nH]c2cc(-c3cccs3)ccc12)C1CC1

>  <Assigned Class>
Satisfied

$$$$
>  <Compound>
COc1cc(Nc2nccc(N3CCC(NC(=O)Nc4cccc(C(C)=O)c4)C3)n2)cc(OC)c1OC (centres unmarked) [GSK1379753A]

>  <Assigned Class>
Not satisfied

$$$$
>  <Compound>
CS(=O)(=O)CCNCc1nc(-c2ccc3ncnc(Nc4ccc(OCc5ccccc5)c(Cl)c4)c3c2)cs1 [GW582764A]

>  <Assigned Class>
Satisfied

$$$$
>  <Compound>
CCOc1ccc2c(-c3ccnc(Nc4cccc(C(F)(F)F)c4)n3)cnn2n1 [GW811761X]

>  <Assigned Class>
Not satisfied

$$$$
>  <Compound>
Cc1cc(N2CCC(NS(=O)(=O)c3ccc(F)cc3)CC2)nc(Nc2cccc(C#N)c2)n1 [GSK1653537A]

>  <Assigned Class>
Not satisfied

$$$$
